- assay-summary: chemical genetic growth profiling, strain panel (AID 1159580);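 note: tested at 20 µM; growth read once vehicle control cultures reached saturation at 30 °C; 1 = growth at the plate median or of vehicle wells; lower values mean less growth of the strain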
- measurement-conditions: S. cerevisiae deletion strains, growth OD, locus YMR307W, strain GAS1, hits give low values
Screen size: about 5,500 compounds; about 2,000 (36%) were called active. About 18% were inconclusive and are not listed. This is one part of the list.
property-label: normalized growth
Answer with the value's number alone.

compound: COc1cc(OC)c(-c2c(OC)cc(OC)cc2OC)c(OC)c1
property-label: normalized growth
observed: 1.07
--
compound: CC(O)CNc1ccc(C(F)(F)F)cc1[N+](=O)[O-] (centres undefined)
property-label: normalized growth
observed: 1.03
--
compound: O=c1cc(-c2ccc(O)cc2)oc2cc(O[C@@H]3O[C@H](CO)[C@@H](O)[C@H](O)[C@H]3O[C@@H]3OC[C@](O)(CO)[C@H]3O)cc(O)c12
property-label: normalized growth
observed: 1.04
--
compound: COc1ccc2ccc(=O)oc2c1CC=C(C)C
property-label: normalized growth
observed: 0.706
--
compound: FC(F)(F)c1cc(NC2=NCCN=C(Nc3cc(C(F)(F)F)cc(C(F)(F)F)c3)SS2)cc(C(F)(F)F)c1
property-label: normalized growth
observed: 0.916
--
compound: CC1(C)C=Cc2c(cc3occ(-c4ccc5c(c4)OCO5)c(=O)c3c2O)O1
property-label: normalized growth
observed: 0.946

Form field: reported normalized growth of C[C@]12CCC3C(CC[C@H]4C[C@@H](Cl)CC[C@]34C)C1CCC2=O (some centres undefined)
1.06

normalized growth lookup needed for COc1cc(O)c(C(=O)O)c(O)c1 , thanks.
1.03

For CCCN(CCC)[C@@H]1CCc2c(F)ccc(O)c2C1 , what is its reported normalized growth?
1

Endpoint output: normalized growth of COc1c2c(cc3occ(-c4ccc5c(c4)OCO5)c(=O)c13)OC(C)(C)C=C2 . Value?
1.05

# query: normalized growth of entry N#CCCNc1cc(C(F)(F)F)cc(C(F)(F)F)c1
0.903
